System: Wolbachia pipientis
experimental-details: Anti-Wolbachia Cell-Based Screen
Type: functional
Design: scale not given: in the data most compounds retested in dose-response had high values
settings: 5 µM
About 13,000 (27%) of roughly 48,000 compounds showed an effect of 50% or more. This is one part of the list.
Kindly state Percent Effect for each of the entries shown.
Give bare numbers, in %.

molecule	measurement-target	result-units	Percent Effect
CCn1ccnc1CN1CCCn2nc(CNC(=O)C3CCC3)cc2C1	Wolbachia pipientis	%	17.11
CCN1CCn2c(C)cnc2C12CCN(C(=O)NCC(C)C)CC2.O=C(O)C(F)(F)F	Wolbachia pipientis	%	99.78
CCS(=O)(=O)c1ccc2oc([C@H]3CCN(Cc4ccncc4)C3)nc2c1	Wolbachia pipientis	%	-3.63
CNC(=O)[C@@H]1[C@@H](c2ccccc2)CN2CCN(Cc3ccccn3)C[C@H]12	Wolbachia pipientis	%	89.14
Nc1nccc(NCc2cc3n(n2)CCCN(C(=O)C2CCC2)C3)n1	Wolbachia pipientis	%	-4.748

Please go through the list and note Percent Effect for each molecule.
1. O=c1ccn(Cc2nc(-c3ccccc3F)cs2)c(=O)[nH]1
2. CNC(=O)[C@@H]1[C@H]2CN(Cc3ccccn3)CCN2C[C@H]1c1ccccc1
3. CSc1nccc(NCc2cc3n(n2)CCCN(S(C)(=O)=O)C3)n1
4. CCN(CC1CCOCC1)C(=O)Cn1cccc(C(F)(F)F)c1=O
5. CSc1nccc(NCc2cc3n(n2)CCCN(C(=O)C2CCC2)C3)n1
6. COc1cccc(NC(C(N)=O)c2ccc(Br)cc2)c1 (stereo unspecified)

Output line:
1. -9.097
2. 121
3. 18.18
4. -10.75
5. 104.3
6. 1.947

----------
Give measured Percent Effect for each item. Keep answers brief.
Tested on: Wolbachia pipientis
experimental-details: Anti-Wolbachia Cell-Based Screen
Format: functional
Design: scale not given: in the data most compounds retested in dose-response had high values
settings: 5 µM
Out of some 48,000 compounds screened, about 13,000 (27%) showed an effect of 50% or more. Some of the results follow.
One number for each entry, in %.

compound	reported-endpoint	result-units	data-value
COc1ccc(C[C@H]2CN(Cc3ccoc3)CC[C@H]2OC)cc1.O=C(O)C(F)(F)F	Percent Effect	%	63.46

Okay, here is my list. What is Percent Effect for each of these?
1. COc1ccc(C[C@H]2CN(C3CCOCC3)CC[C@@H]2OCC2CC2)cc1.O=C(O)C(F)(F)F
2. Cc1noc(C)c1CNCC1COCc2c(-c3ccoc3)nnn2C1.O=C(O)C(F)(F)F (stereo not given)
3. CN(C)CCN(C)C(=O)NC1CCC(Oc2ccccc2C#N)CC1 (stereo not given)
4. Cc1cccc(CN2CCN(c3ncnc4[nH]cnc34)CC2CCO)n1 (stereo not given)
5. c1csc(CNCC2COCc3c(-c4ccsc4)nnn3C2)n1 (stereo not given)
6. COc1ccc(C[C@H]2CN(Cc3ccoc3)CC[C@@H]2OC)cc1.O=C(O)C(F)(F)F

Output line:
1. -34.49
2. -8.022
3. -10.57
4. 8.055
5. -12.98
6. 76.48

----------
Test system: Wolbachia pipientis
experimental-details: Anti-Wolbachia Cell-Based Screen
Assay type: functional
Design: scale not given: in the data most compounds retested in dose-response had high values
settings: 5 µM
The campaign covered roughly 48,000 compounds. About 13,000 (27%) showed an effect of 50% or more. The list shows a part of the results.
reported-endpoint: Percent Effect (%)
One number for each entry, in %.

compound	result-units	Percent Effect
Cc1cccc(CN2CCCC(O)(CNCCN3CCCCC3)C2=O)c1 (configuration not stated)	%	-21.92
COCCCNC(=O)Nc1cc(-c2ccccc2C)nn1CCO	%	-5.534
Cc1nccn1-c1ccc(C(C)NCCC(C)C)cc1 (configuration not stated)	%	-1.351
CC(C)CCNC(=O)c1ccc(-c2ccco2)[nH]c1=O	%	11.73
CCn1ncc2c1CCCC2NCc1csc(COC)n1 (configuration not stated)	%	6.958

Batch lookup, Percent Effect per entry.
1. Cc1nccn1-c1ccc(CN2CC3C[C@@H](O)CN3C[C@@H]2C)cc1 (some centres not stated)
2. COCCNC(=O)C(C)n1nc(-c2ccco2)cc(N)c1=O (configuration not stated)
3. C[C@H]1CN2C[C@H](O)CC2CN1Cc1ccc2nccnc2c1.Cl (some centres not stated)
4. Fc1cnc(N2CCO[C@H]3[C@H](OCC4CCOCC4)CC[C@@H]32)nc1.O=C(O)C(F)(F)F
5. Cc1cc(C(F)(F)F)nc(C2CCN(C(=O)CO)CC2)n1

Output line:
108
94.6
75.9
113.1
124.3

Below are 8 compounds. Give each one its Percent Effect.
1. Cc1cncc(C(=O)N2CCN(c3cnn(C)c(=O)c3)CC2)c1
2. CC1CCc2sc(C(=O)Nc3cnn(C)c3)cc2C1 (configuration not stated)
3. CS(=O)(=O)N1C[C@@H]2CC[C@H](C1)N(Cc1ccc3nsnc3c1)C2
4. O=C(CO[C@@H]1CC[C@H]2[C@H]1OCCN2c1ncccn1)N1CCCC1.O=C(O)C(F)(F)F
5. C1CC(CN2CCO[C@H]3[C@H](OCC4CC4)CC[C@@H]32)CCO1.O=C(O)C(F)(F)F
6. O=C(c1ncc[nH]1)N1CCC(Cn2cc(-c3cccc(Cl)c3)nn2)CC1
7. Cc1ccc(CN2CC[C@H]3CO[C@H](CN(C)C)[C@H]3C2)o1
8. CC(C)C1CN(C(=O)c2ccsc2)CCS1 (configuration not stated)

Output line:
1. -23.7
2. 18.64
3. 5.437
4. -14.02
5. -2.542
6. -5.477
7. -4.083
8. 1.544

Provide each entry's Percent Effect from the list below.
1. O=C(N1CCN(c2ccccc2O)CC1)C1(O)Cc2ccccc2C1
2. C[C@@H]1CN2C[C@H](O)CC2CN1Cc1ccc2nccnc2c1 (some centres not stated)
3. Cc1ccsc1C(=O)N1C[C@@H](C(=O)O)[C@H](C(C)C)C1
4. COc1ccc(CN2CC(=O)N(c3ccc(C)cc3)CC2C)cc1O (configuration not stated)

Output line:
[-7.176, 113.8, 117.1, -1.266]

----------
Could you please report measured Percent Effect for the items listed next?
Test system: Wolbachia pipientis
experimental-details: Anti-Wolbachia Cell-Based Screen
Assay type: functional
Design: scale not given: in the data most compounds retested in dose-response had high values
settings: 5 µM
About 13,000 (27%) of roughly 48,000 compounds showed an effect of 50% or more. The list shows a part of the results.
One number for each entry, in %.

Solved entries (count: 6):
molecule	reported-endpoint	data-value
O=S1(=O)NC2(CCCN(Cc3ccc(F)cc3)C2)COc2ccccc21 (configuration not stated)	Percent Effect	98.49
CC(=O)NCc1ccc(S(=O)(=O)NC(=O)c2ccc3c(c2)COC3)s1	Percent Effect	-2.938
CC(C)NC(=O)CCNC(=O)CCc1cc(Br)cs1	Percent Effect	-10.2
CN(Cc1ccco1)C[C@H]1OC[C@@H]2CCN(Cc3ccccn3)C[C@@H]21.O=C(O)C(F)(F)F.O=C(O)C(F)(F)F.O=C(O)C(F)(F)F	Percent Effect	0.7755
COCCCC1(CO)CCCN(CCc2ccccc2)C1 (configuration not stated)	Percent Effect	-12.43
CCS(=O)(=O)c1ncc(CN(C)Cc2ccccn2)n1CCOC	Percent Effect	-6.84

Record Percent Effect for all entries; do not skip any.
1. CN(Cc1ccccn1)C(=O)[C@H]1CO[C@H]2CCN(CC3CC3)C[C@H]2C1.O=C(O)C(F)(F)F.O=C(O)C(F)(F)F
2. CCNC(=O)N(Cc1cccc(OC)c1)C1CCC(O)CC1 (configuration not stated)
3. CC(C)(C)n1ncc2c(=O)[nH]c(N3CCN(CC(F)F)CC3)nc21
4. Cc1nnc(NCc2cccc(OCc3ccccn3)c2)c(C#N)c1C

Output line:
1. 99.36
2. -8.682
3. 4.311
4. 115.9

----------
System: Wolbachia pipientis
experimental-details: Anti-Wolbachia Cell-Based Screen
Assay type: functional
Design: scale not given: in the data most compounds retested in dose-response had high values
settings: 5 µM
The whole screen tested about 48,000 compounds, of which about 13,000 (27%) showed an effect of 50% or more. Some of the results follow.
reported-endpoint: Percent Effect (%)
Answers are plain numbers, in %.

Need Percent Effect for each of these molecules.
1. Cc1noc(-c2ccc(N3CCCC(C(=O)c4nccn4C)C3)nc2)n1 (centres undefined)
2. CS(=O)(=O)Cc1nc(CN2CCC(C(F)(F)F)CC2)cs1
3. CCS(=O)(=O)N1CCn2c(COCC3CCOCC3)cnc2C1C (centres undefined)
4. CCc1nc(CN(C)C2CCN(CCNS(=O)(=O)CC)C2)no1 (centres undefined)

Output line:
1. 20.25
2. -5.539
3. -1.918
4. 8.032

Each of the following entries comes with a recorded value; kindly state Percent Effect for each.
1. CS(=O)(=O)CCNCc1ccc(OCc2cscn2)cc1
2. Cc1cnn(CCNCc2nc(-c3ccsc3)oc2C)c1
3. c1cnn(CC2CN(Cc3csc(-c4ccsc4)n3)CCO2)c1 (centres undefined)
4. CCc1nc(CN(C)C2CCN(CCOc3ccccc3)C2)no1 (centres undefined)
5. CCc1nn(C)c(CC)c1CNC(=O)Nc1cccc([S+](C)[O-])c1 (centres undefined)
6. c1ncn(CC2CN(Cc3csc(C4CCCC4)n3)CCO2)n1 (centres undefined)
7. CCc1nc2n(n1)CCCC2Nc1nc(C2CC2)ns1 (centres undefined)
8. COCC1CN(C(=O)Cc2ccccn2)Cc2c1cnn2CC1CC1.O=C(O)C(F)(F)F.O=C(O)C(F)(F)F (centres undefined)

Output line:
1: -7.403; 2: -10.22; 3: -6.772; 4: 109.8; 5: 3.217; 6: -2.779; 7: 8.759; 8: -11.65

Look up Percent Effect for the entries below, preserving their order.
1. Cc1cnn(CC2CN(Cc3csc(C4CCCC4)n3)CCO2)c1 (centres undefined)
2. CN(C)CC1CN(Cc2csc(C3CCCC3)n2)CCO1 (centres undefined)
3. CCc1nc(CN(C)C2CCN(Cc3ccc(C#N)cc3F)C2)no1 (centres undefined)

Output line:
109.2
6.428
1.706
